target: Carbonic anhydrase 1 (Homo sapiens) (UniProt P00915); experiment: In vitro binding affinity against human carbonic anhydrase I (hCA-I human cloned isozyme).
Sequence (P00915 2-261 limits assumed): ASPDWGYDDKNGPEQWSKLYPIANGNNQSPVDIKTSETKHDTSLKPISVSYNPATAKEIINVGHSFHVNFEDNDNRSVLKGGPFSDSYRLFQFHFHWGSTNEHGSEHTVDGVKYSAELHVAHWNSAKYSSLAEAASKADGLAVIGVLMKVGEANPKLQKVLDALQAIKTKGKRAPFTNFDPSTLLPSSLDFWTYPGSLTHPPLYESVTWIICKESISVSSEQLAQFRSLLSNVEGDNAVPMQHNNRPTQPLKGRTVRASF
reported-property: Ka (µM)
Numbers only, in µM.

Answered cases to consult:
O=S(=O)(NCCc1c[nH]cn1)c1cccs1 :: 0.09
O=[N+]([O-])c1ccc(S(=O)(=O)NCCc2c[nH]cn2)cc1 :: 0.14
O=S(=O)(NCCc1c[nH]cn1)C(F)(F)F :: 0.013
O=S(=O)(NCCc1c[nH]cn1)c1cc(Cl)ccc1Cl :: 0.08
O=S(=O)(NCCc1c[nH]cn1)c1ccc(Cl)cc1 :: 0.1

Problem: Please give the measured Ka for this molecule: `O=S(=O)(NCCc1c[nH]cn1)C(F)(F)C(F)(F)C(F)(F)C(F)(F)F`
Result: 0.01
